In this section we review reported Ki values for a set of compounds.
- system.under.test: BCHE (Homo sapiens (Human), UniProt P06276)
- Sequence (P06276 29-602, species assumed): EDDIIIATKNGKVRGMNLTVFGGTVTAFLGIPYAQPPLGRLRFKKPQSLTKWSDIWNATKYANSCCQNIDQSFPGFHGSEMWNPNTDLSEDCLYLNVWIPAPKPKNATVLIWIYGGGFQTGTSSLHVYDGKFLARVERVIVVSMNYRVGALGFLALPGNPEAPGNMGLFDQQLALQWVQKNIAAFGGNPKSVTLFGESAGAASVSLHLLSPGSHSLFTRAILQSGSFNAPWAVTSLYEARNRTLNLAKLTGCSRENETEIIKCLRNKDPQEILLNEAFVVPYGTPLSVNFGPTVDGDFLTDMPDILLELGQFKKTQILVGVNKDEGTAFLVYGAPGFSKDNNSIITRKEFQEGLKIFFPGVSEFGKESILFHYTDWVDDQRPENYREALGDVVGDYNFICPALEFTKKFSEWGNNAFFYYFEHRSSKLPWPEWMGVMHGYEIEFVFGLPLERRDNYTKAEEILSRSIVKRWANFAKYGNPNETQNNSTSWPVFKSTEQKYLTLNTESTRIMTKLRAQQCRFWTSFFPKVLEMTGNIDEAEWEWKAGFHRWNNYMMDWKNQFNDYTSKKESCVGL
- protocol.text: biochemical
- Format: biochemical
recorded.endpoint: Ki (µM)

[
  {
    "compound": "CCOP(=O)(OCC)Oc1ccccc1 [Compound 94, Diethyl phenyl phosphate]",
    "system.under.test": "BCHE (Homo sapiens (Human), UniProt P06276)",
    "reported.result": 55
  },
  {
    "compound": "CCCCOP(=O)(OCCCC)Oc1ccc2ccccc2c1 [Compound 35, Di-n-butyl 2-napthyl phosphate]",
    "system.under.test": "BCHE (Homo sapiens (Human), UniProt P06276)",
    "reported.result": 1.9
  },
  {
    "compound": "CCCCOP(=O)(OCCCC)Oc1cc(C)cc(C)c1 [Compound 27, Di-n-butyl 3,5-dimethylphenyl phosphate]",
    "system.under.test": "BCHE (Homo sapiens (Human), UniProt P06276)",
    "reported.result": 1
  },
  {
    "compound": "CCCCCOP(=O)(OCCCCC)Oc1ccccc1 [Compound 97, Di-n-pentyl phenyl phosphate]",
    "system.under.test": "BCHE (Homo sapiens (Human), UniProt P06276)",
    "reported.result": 6
  },
  {
    "compound": "COP(=O)(OC)Oc1ccccc1 [Compound 93, Dimethyl phenyl phosphate]",
    "system.under.test": "BCHE (Homo sapiens (Human), UniProt P06276)",
    "reported.result": 1700
  },
  {
    "compound": "O=P(Oc1ccccc1)(OC1CCCCC1)OC1CCCCC1 [Compound 98, Di-cyclohexyl phenyl phosphate]",
    "system.under.test": "BCHE (Homo sapiens (Human), UniProt P06276)",
    "reported.result": 7
  }
]

----------
In this section we review reported pIC50 values for a set of compounds.
- system.under.test: BCHE (Homo sapiens (Human))
- protocol.text: biochemical
- Format: biochemical
- applied.conditions: enzyme incubated 2 hours with compound
pIC50: −log10 of the molar value.
recorded.endpoint: pIC50

[
  {
    "compound": "CCOP(=O)(OCC)OCCCCCOP(=O)(OCC)OCC [Compound 55, Tetraethyl pentane-1,5-diyl bisphosphate]",
    "recorded.endpoint": "pIC50",
    "reported.result": 4.45
  },
  {
    "compound": "CCCCOP(=O)(OCCCC)OCCCCCOP(=O)(OCCCC)OCCCC [Compound 61, Tetrabutyl pentane-1,5-diyl bisphosphate]",
    "recorded.endpoint": "pIC50",
    "reported.result": 5.57
  },
  {
    "compound": "CCCCOP(=O)(OCCCC)OCCCOP(=O)(OCCCC)OCCCC [Compound 59, Tetrabutyl propane-1,3-diyl bisphosphate]",
    "recorded.endpoint": "pIC50",
    "reported.result": 6.10
  }
]

----------
- system.under.test: BCHE (Homo sapiens (Human), UniProt P06276)
- protocol.text: biochemical
- Format: biochemical
- applied.conditions: Irreversible = enzyme covalently modified
recorded.endpoint: Mode of Inhibition

[
  {
    "molecule": "CCOP(=O)(OCC)OCCCCCCOP(=O)(OCC)OCC [Compound 56, Tetraethyl hexane-1,6-diyl bisphosphate]",
    "system.under.test": "BCHE (Homo sapiens (Human), UniProt P06276)",
    "reported.result": "Reversible"
  },
  {
    "molecule": "CCCCOP(=O)(Cc1ccc2ccccc2c1)OCCCC [Compound 90, Di-n-butyl 2-naphthylmethylphosphonate]",
    "system.under.test": "BCHE (Homo sapiens (Human), UniProt P06276)",
    "reported.result": "Irreversible^g"
  },
  {
    "molecule": "CCCCOP(=O)(OCCCC)Oc1ccccc1Cl [Compound 9, Di-n-butyl 2-chlorophenyl phosphate]",
    "system.under.test": "BCHE (Homo sapiens (Human), UniProt P06276)",
    "reported.result": "Irreversible^g"
  },
  {
    "molecule": "CCCCOP(=O)(OCCCC)Oc1cc(C)cc(C)c1 [Compound 27, Di-n-butyl 3,5-dimethylphenyl phosphate]",
    "system.under.test": "BCHE (Homo sapiens (Human), UniProt P06276)",
    "reported.result": "Reversible"
  },
  {
    "molecule": "CCCCCOP(=O)(OCCCCC)Oc1ccccc1 [Compound 97, Di-n-pentyl phenyl phosphate]",
    "system.under.test": "BCHE (Homo sapiens (Human), UniProt P06276)",
    "reported.result": "^aPartial competitive."
  },
  {
    "molecule": "CCCCOP(=O)(OCCCC)OCCCCCCOP(=O)(OCCCC)OCCCC [Compound 62, Tetrabutyl hexane-1,6-diyl bisphosphate]",
    "system.under.test": "BCHE (Homo sapiens (Human), UniProt P06276)",
    "reported.result": "Reversible"
  },
  {
    "molecule": "CCCCOP(=O)(Cc1cc(C)cc(C)c1)OCCCC [Compound 92, Di-n-butyl 3,5-dimethylbenzylphosphonate]",
    "system.under.test": "BCHE (Homo sapiens (Human), UniProt P06276)",
    "reported.result": "Irreversible^g"
  },
  {
    "molecule": "O=P(OCCCCCCOP(=O)(Oc1ccccc1)Oc1ccccc1)(Oc1ccccc1)Oc1ccccc1 [Compound 67, Tetraphenyl hexane-1,6-diyl bisphosphate]",
    "system.under.test": "BCHE (Homo sapiens (Human), UniProt P06276)",
    "reported.result": "Reversible"
  },
  {
    "molecule": "O=P(Oc1ccccc1)(OC1CCCCC1)OC1CCCCC1 [Compound 98, Di-cyclohexyl phenyl phosphate]",
    "system.under.test": "BCHE (Homo sapiens (Human), UniProt P06276)",
    "reported.result": "^aPartial competitive."
  },
  {
    "molecule": "CCCCOP(=O)(OCCCC)Oc1ccc2ccccc2c1 [Compound 35, Di-n-butyl 2-napthyl phosphate]",
    "system.under.test": "BCHE (Homo sapiens (Human), UniProt P06276)",
    "reported.result": "Reversible"
  },
  {
    "molecule": "CCCCOP(=O)(Cc1cccc2ccccc12)OCCCC [Compound 89, Di-n-butyl 1-naphthylmethylphosphonate]",
    "system.under.test": "BCHE (Homo sapiens (Human), UniProt P06276)",
    "reported.result": "Irreversible^g"
  }
]
